Known relative viability of a selection of compounds
System: NCI-H441
method.summary: relative viability (nuclei count vs DMSO), 5 days (fraction); higher = more cells survive
experimental.setup: first compound 0.08 µM
Please state the value as a number alone, without comment.

compound: CCCCCCCCCCCC1=C(O)C(=O)C=C(O)C1=O [Embelin] + O=C(c1cc(Cc2n[nH]c(=O)c3ccccc23)ccc1F)N1CCN(C(=O)C2CC2)CC1 [Olaparib] (partner 8 µM)
relative viability: 0.624
--
compound: CCCCCCCCCCCC1=C(O)C(=O)C=C(O)C1=O [Embelin] + NC(=O)Nc1cc(-c2cccc(F)c2)sc1C(=O)N[C@H]1CCCNC1 [AZD7762] (partner 0.2 µM)
relative viability: 1.09
--
compound: CCCCCCCCCCCC1=C(O)C(=O)C=C(O)C1=O [Embelin] + CC(=O)Nc1cccc(-n2c(=O)n(C3CC3)c(=O)c3c(Nc4ccc(I)cc4F)n(C)c(=O)c(C)c32)c1 [Trametinib] (partner 0.02 µM)
relative viability: 0.399
--
compound: CCCCCCCCCCCC1=C(O)C(=O)C=C(O)C1=O [Embelin] + C[C@]1(O)C[C@@H](c2nc(-c3ccc4ccc(-c5ccccc5)nc4c3)c3c(N)nccn32)C1 [Linsitinib] (partner 1 µM)
relative viability: 0.598

Next item in the queue.
Lab entry: NCI-H441 assay, compound CCCCCCCCCCCC1=C(O)C(=O)C=C(O)C1=O [Embelin] + O=C(CCCCCCC(=O)Nc1ccccc1)NO [Vorinostat] (partner 1 µM) , relative viability = 0.691
